The values you see were collected from PubChem BioAssay.

experiment: basal CRE-LacZ reporter activity in PC12 – cell-based, unstimulated, primary screen (AID 1145); conditions: no forskolin, luminescence, 4.5 h, higher = more signal, called active from +8 up or from −8 down
Activity calls are given as the source filed them.
Attribute Measured: z-score

[[record]]
compound = "C=CCN(Cc1ccccc1)C(=O)C(c1cccs1)N(C(=O)/C=C\\C(=O)O)c1ccc(CCOCCO)cc1 (configuration not stated)"
result = "-0.0737 (inactive)"

[[record]]
compound = "Cc1ccc(/C=C/C=O)cc1"
result = "-0.141 (inactive)"

[[record]]
compound = "CC(C)(C)OC(=O)CC[C@]1(C(=O)NCCN2CCOCC2)COC(c2ccc(OCCCO)cc2)=N1"
result = "0.157 (inactive)"

[[record]]
compound = "CN(C)CCCCNC(=O)[C@@H]1C[C@@H]2C(=O)N[C@@H](CCCCN)C(=O)N2[C@@H]1c1ccc(O)cc1"
result = "0.281 (inactive)"

[[record]]
compound = "O=C1C2C=CC(C(O)c3ccc(-c4ccccc4)s3)N(Nc3ccccc3)C2C(=O)N1c1ccccc1 (configuration not stated)"
result = "0.0569 (inactive)"

[[record]]
compound = "C=CC[C@]1(C(=O)N2CCOCC2)N=C(c2ccc(OCCCO)cc2)O[C@H]1c1ccccc1N=[N+]=[N-]"
result = "-0.193 (inactive)"

[[record]]
compound = "C=CCNC(=O)[C@H]1[C@@H]2C(=O)O[C@@H](c3ccccc3)[C@@H](c3ccccc3)N2[C@@H](c2ccc(O)cc2)[C@]12C(=O)Nc1ccc(C#CCCO)cc12"
result = "0.452 (inactive)"

[[record]]
compound = "COC(=O)[C@@]1(Cc2ccccc2)[C@H]2c3cc(C(=O)N(C)C)n(Cc4ccc(OC)c(OC)c4)c3C[C@H]2CN1C(=O)c1ccccc1"
result = "0.394 (inactive)"

[[record]]
compound = "CCCC[C@@H]1C[C@H]1[C@@H](NC(=O)c1cccnc1)c1ccc(Cl)cc1"
result = "-0.368 (inactive)"

[[record]]
compound = "C=C(C(=O)CC[C@H](OC(C)=O)c1ccccc1OCCO)C(C)C"
result = "9.01 (active)"

[[record]]
compound = "COc1ccc(NC(=O)O[C@H]2[C@H](OC(=O)c3cc4ccccc4[nH]3)[C@@H](OC(=O)c3cc4ccccc4[nH]3)[C@@H](OC)O[C@@H]2CO)cc1"
result = "1.84 (inactive)"

[[record]]
compound = "OB1C=CCC(CCc2ccccc2)O1 (configuration not stated)"
result = "0.672 (inactive)"

[[record]]
compound = "COC(=O)[C@@]1(Cc2ccccc2)[C@H]2c3cc(C(=O)N(C)C)n(CCc4c[nH]c5ccc(O)cc45)c3C[C@H]2CN1C(=O)c1ccccc1"
result = "0.0041 (inactive)"

[[record]]
compound = "O=C1NC(=O)C2C1C=CC(C(O)C=Cc1ccc([N+](=O)[O-])cc1)N2Nc1ccc(Cl)cc1Cl (configuration not stated)"
result = "0.253 (inactive)"

[[record]]
compound = "COCCCNC(=O)[C@@]1(Sc2ccc(C)cc2)CC(=O)N(Cc2ccccc2Cl)[C@@H]1c1ccc(CO)cc1"
result = "-0.374 (inactive)"

[[record]]
compound = "O[C@@H](Cc1ccccc1)[C@@H](/C=C/C1CC1)NCc1cccc(Cl)c1"
result = "4.76 (inactive)"

[[record]]
compound = "[N-]=[N+]=Nc1ccccc1C[C@]1(C(=O)NCc2ccccc2)N=C(c2ccc(OCCCO)cc2)O[C@H]1c1ccccc1N=[N+]=[N-]"
result = "1.77 (inactive)"

